Tested on: cancer cell lines
Assay: Cancer cell proliferation activity (CellTiterGlo, 72 h)
Format: cell-based
Settings: Homo sapiens, OVCAR-4, 72 h, OVCAR4 (ovary), 72 h; read-out: IC50 cell proliferation
pIC50: −log10 of the molar value.
What pIC50 was measured for each of the following?

Task: Report the value of pIC50 obtained on cancer cell lines for `C[C@]1(CO)O[C@@H](n2ccc(N)nc2=O)[C@@H](O)[C@@H]1O` .
Result: < 4.30

Task: Report the value of pIC50 obtained on cancer cell lines for `C[C@]1(CO)O[C@@H](n2ccc(N)nc2=O)C(F)(F)[C@@H]1O` .
Result: < 4.30

Task: Report the value of pIC50 obtained on cancer cell lines for `Nc1nc(=O)n([C@H]2C[C@H](O)[C@](CO)(CF)O2)cc1F` .
Result: < 4.30

* * *

Test system: cancer cell lines
Assay: Cancer cell proliferation activity (CellTiterGlo, 72 h)
Assay type: cell-based
Conditions: Homo sapiens, NCI-H82, 72 h, NCIH82 (lung), 72 h; read-out: IC50 cell proliferation
OBSERVED_PROPERTY: IC50 (nM)
Reply numerically in nM, unit not repeated.

Task: Look up and state reported IC50 for Nc1nc(F)nc2c1ncn2[C@@H]1O[C@H](CO)[C@@H](O)[C@H]1O [compound 184]
Result: 60

Task: Look up and state reported IC50 for Nc1nc(F)nc2c1ncn2[C@@H]1O[C@H](CO)[C@@H](O)[C@@H]1O [compound 170]
Result: 21300

Task: Look up and state reported IC50 for C[C@]1(CO)O[C@@H](n2cnc3c(N)nc(F)nc32)[C@H](O)[C@@H]1O [Cpd. No. 178]
Result: 70

* * *

Test system: cancer cell lines
Experiment: Cancer cell proliferation activity (CellTiterGlo, 72 h)
Format: cell-based
Conditions: Homo sapiens, A2780, 72 h, A2780 cell line (ovary), 72 h; read-out: IC50
What IC50 was measured for each of the following?
Reply numerically in nM, unit not repeated.

Task: Look up and state reported IC50 for COC[C@]1(CO)O[C@@H](n2cnc3c(N)nc(F)nc32)C[C@@H]1O [Cpd. No. 140]
Result: 770

Task: Look up and state reported IC50 for C[C@]1(CO)O[C@@H](n2cc(F)c(N)nc2=O)C[C@@H]1O [Cpd. No. 4]
Result: 680

Task: Look up and state reported IC50 for C[C@]1(CO)O[C@@H](n2cnc3c(N)nc(F)nc32)C[C@@H]1O [Cpd. No. 126]
Result: 1260

Task: Look up and state reported IC50 for CC[C@]1(CO)O[C@@H](n2cnc3c(N)nc(F)nc32)C[C@@H]1O [Cpd. No. 1]
Result: 910

Task: Look up and state reported IC50 for CCC[C@]1(CO)O[C@@H](n2cnc3c(N)nc(F)nc32)C[C@@H]1O [Cpd. No. 129]
Result: 740

* * *

Test system: cancer cell lines
Assay: Cancer cell proliferation activity (CellTiterGlo, 72 h)
Format: cell-based
Details: 72 h, CLS439 (bladder), 72 h; read-out: IC50 cell proliferation
What IC50 was measured for each of the following?

Task: Look up and state reported IC50 for `Nc1nc(=O)n([C@H]2C[C@H](O)[C@](CO)(CF)O2)cc1F`
Result: > 50 µM

Task: Look up and state reported IC50 for `C[C@]1(CO)O[C@@H](n2ccc(N)nc2=O)C(F)(F)[C@@H]1O`
Result: > 50 µM

Task: Look up and state reported IC50 for `C[C@]1(CO)O[C@@H](n2ccc(N)nc2=O)[C@@H](O)[C@@H]1O`
Result: > 50 µM
